# Test system: HEK-293T
# method notes: Cytotoxicity against human 293T cells after 48 hrs by MTT assay
# Type: cell-based
pIC50: −log10 of the molar value.
result type: pIC50

molecular string: O=C(COc1cc(O)c2c(=O)cc(-c3ccccc3)oc2c1)OCc1cc(-c2ccc(Cl)c(Cl)c2)n(-c2ccccc2)n1
system under test: HEK-293T
numeric result: 3.63
--
molecular string: Cc1cccc(-c2cc(COC(=O)COc3cc(O)c4c(=O)cc(-c5ccccc5)oc4c3)nn2-c2ccc(Cl)cc2)c1
system under test: HEK-293T
numeric result: 3.79
--
molecular string: O=C(COc1cc(O)c2c(=O)cc(-c3ccccc3)oc2c1)OCc1cc(-c2ccc(Br)cc2)n(-c2ccccc2)n1
system under test: HEK-293T
numeric result: 3.50
--
molecular string: O=C(COc1cc(O)c2c(=O)cc(-c3ccccc3)oc2c1)OCc1cc(-c2cccc(F)c2)n(-c2ccccc2)n1
system under test: HEK-293T
numeric result: 3.70
--
molecular string: O=C(COc1cc(O)c2c(=O)cc(-c3ccccc3)oc2c1)OCc1cc(-c2cccc([N+](=O)[O-])c2)n(-c2ccccc2)n1
system under test: HEK-293T
numeric result: 3.46
--
molecular string: Cc1ccc(-c2cc(C(F)(F)F)nn2-c2ccc(S(N)(=O)=O)cc2)cc1
system under test: HEK-293T
numeric result: 3.65
--
molecular string: Cc1ccc(-c2cc(COC(=O)COc3cc(O)c4c(=O)cc(-c5ccccc5)oc4c3)nn2-c2ccc(C)cc2)cc1
system under test: HEK-293T
numeric result: 3.71
--
molecular string: O=C(COc1cc(O)c2c(=O)cc(-c3ccccc3)oc2c1)OCc1cc(-c2cccc(Cl)c2)n(-c2ccccc2)n1
system under test: HEK-293T
numeric result: 3.73
--
molecular string: Cc1cccc(-c2cc(COC(=O)COc3cc(O)c4c(=O)cc(-c5ccccc5)oc4c3)nn2-c2ccccc2)c1
system under test: HEK-293T
numeric result: 3.50
--
molecular string: Cc1ccc(-c2cc(COC(=O)COc3cc(O)c4c(=O)cc(-c5ccccc5)oc4c3)nn2-c2ccccc2)cc1
system under test: HEK-293T
numeric result: 3.50
--
molecular string: O=C(COc1cc(O)c2c(=O)cc(-c3ccccc3)oc2c1)OCc1cc(-c2cccc(C(F)(F)F)c2)n(-c2ccccc2)n1
system under test: HEK-293T
numeric result: 3.57
--
molecular string: O=C(COc1cc(O)c2c(=O)cc(-c3ccccc3)oc2c1)OCc1cc(-c2ccc(Cl)c(Cl)c2)n(-c2ccc(Cl)cc2)n1
system under test: HEK-293T
numeric result: 3.57
--
molecular string: Cc1ccc(-c2cc(COC(=O)COc3cc(O)c4c(=O)cc(-c5ccccc5)oc4c3)nn2-c2ccc(Cl)cc2)cc1
system under test: HEK-293T
numeric result: 3.65
--
molecular string: COc1cccc(-c2cc(COC(=O)COc3cc(O)c4c(=O)cc(-c5ccccc5)oc4c3)nn2-c2ccccc2)c1
system under test: HEK-293T
numeric result: 3.50
--
molecular string: Cc1ccc(-n2nc(COC(=O)COc3cc(O)c4c(=O)cc(-c5ccccc5)oc4c3)cc2-c2ccc(Cl)c(Cl)c2)cc1
system under test: HEK-293T
numeric result: 3.56
--
molecular string: COc1ccc(-c2cc(COC(=O)COc3cc(O)c4c(=O)cc(-c5ccccc5)oc4c3)nn2-c2ccccc2)cc1
system under test: HEK-293T
numeric result: 3.59
